Values were extracted from PubChem BioAssay AID1159506.

# test: Identification of proteins required for the processing of the EWS-FLI1 nascent transcript;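 further: robust z of luciferase light less the median z of siRNAs with the same seed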
# conditions_used: TC32 Ewing sarcoma NR0B1-luc vs CMV-luc (EWS-FLI1 target promoter against control promoter), 48 h; screened at 20 nM (by protocol)
Over roughly 59,000 sequences, the read-out has its median near -0.00055; the lowest 2% begin near -2. This excerpt belongs to a sample that is enriched for the lowest values.
Task for the reader: assign each of the following sequences its reported seed-corrected z-score.
Quick one: just the number, no unit, thanks!

seed-corrected z-score reading for UUCUCCGUUUCUGUUAUGC against SYCP2L : 0.199

get_value(item= AGAUCUAUUGUGAACAGCC against FLT3 , readout=seed-corrected z-score) returns -0.0495

Summary for this sequence, UGUCAUGCAAUAAGAAUCU against NLGN4Y : seed-corrected z-score is 0.297

Looking up AACGGGAACACCGACAACA against OPRL1 , I see its seed-corrected z-score listed as -0.00815

Recorded result, UUCAUCAUCGAGGUCAUCC against DPF2 , seed-corrected z-score: -3.12
